assay.system: human MC3 receptor (Homo sapiens, UniProt P41968)
Sequence (P41968 whole entry): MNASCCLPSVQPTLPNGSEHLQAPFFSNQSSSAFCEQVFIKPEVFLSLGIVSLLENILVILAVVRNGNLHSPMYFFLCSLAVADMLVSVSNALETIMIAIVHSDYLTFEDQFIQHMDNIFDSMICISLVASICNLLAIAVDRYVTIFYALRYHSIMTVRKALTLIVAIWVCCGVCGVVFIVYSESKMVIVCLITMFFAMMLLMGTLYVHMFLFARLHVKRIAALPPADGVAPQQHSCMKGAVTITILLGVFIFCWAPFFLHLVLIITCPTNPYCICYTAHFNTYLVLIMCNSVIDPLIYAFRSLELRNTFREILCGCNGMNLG
test: Functional assay of agonist activity: cAMP formation
particulars: CHO(dhfr-) cells expressing human MC3 receptor, 1 hour incubation, read-out: EC50 with respect to the MC3 receptor
Documented EC50 across a set of compounds
Please provide the amount together with its unit, number first.

Would you please look over these solved cases?
Input line: // lookup EC50 | system=human MC3 receptor (Homo sapiens, UniProt P41968) | key= N[C@H]1CC[C@@H](N[C@H](Cc2ccc(Cl)cc2)C(=O)N2CCC(Cn3cncn3)(C3CCCCC3)CC2)CC1
Output line: 100 nM

Input line: Another: O=C([C@@H](Cc1ccc(Cl)cc1)NC1CCOCC1)N1CCC(Cn2cncn2)(C2CCCCC2)CC1
Output line: 110 nM

Please find the next compound below.
Input line: // lookup EC50 | system=human MC3 receptor (Homo sapiens, UniProt P41968) | key= O=C([C@@H](Cc1ccc(Cl)cc1)NC1CCNCC1)N1CCC(Cn2cncn2)(C2CCCCC2)CC1
Output line: 200 nM
